# ASSAY_TARGET: recombinant soluble homotrimeric HA of A/chicken/Vietnam/NCVD-016/08 (H5N1) (Influenza A virus A/chicken/Vietnam/NCVD-016/2008(H5N1))
# EXPERIMENT_SUMMARY: HA microarray, BCC supernatant
# COND: remark: other sources report otherwise
Exercise: state measured Trimeric HA Binding: RLU for each of the binders provided.
Answers are plain numbers, in RLU.

These recorded examples may help you get a feel for the data.
• TCN-532 (5262_H18) (antibody, V domains shown) VH: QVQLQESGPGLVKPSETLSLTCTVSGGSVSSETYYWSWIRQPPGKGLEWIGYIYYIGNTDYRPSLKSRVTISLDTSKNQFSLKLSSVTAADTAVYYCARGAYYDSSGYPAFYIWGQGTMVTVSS VL: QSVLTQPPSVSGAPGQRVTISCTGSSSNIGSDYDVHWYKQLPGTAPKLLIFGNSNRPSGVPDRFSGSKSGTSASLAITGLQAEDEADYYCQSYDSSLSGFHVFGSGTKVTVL = 46
• TCN-555 (5246_L16) (antibody, V domains shown) VH: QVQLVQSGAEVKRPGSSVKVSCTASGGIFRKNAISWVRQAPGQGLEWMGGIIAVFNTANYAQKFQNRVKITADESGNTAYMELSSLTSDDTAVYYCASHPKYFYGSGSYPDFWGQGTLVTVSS VL: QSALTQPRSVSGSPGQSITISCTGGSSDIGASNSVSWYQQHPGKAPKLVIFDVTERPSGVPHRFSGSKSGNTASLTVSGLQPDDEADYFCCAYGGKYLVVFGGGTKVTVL = 22300

// moving on: another record for Trimeric HA Binding: RLU
// query Trimeric HA Binding: RLU value for entry TCN-545 (5082_I15) (antibody, V domains shown) VH: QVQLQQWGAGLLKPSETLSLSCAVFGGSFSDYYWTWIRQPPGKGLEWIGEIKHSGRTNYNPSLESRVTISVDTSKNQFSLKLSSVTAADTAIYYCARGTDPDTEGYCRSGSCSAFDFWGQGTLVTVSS VL: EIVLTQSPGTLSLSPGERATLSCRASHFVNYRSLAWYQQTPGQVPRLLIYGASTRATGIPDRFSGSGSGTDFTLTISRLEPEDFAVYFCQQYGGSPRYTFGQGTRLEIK
392
